Just for reference, paper PMC9820430 is where these values come from.

- Tested on: sixteen human cancer cell lines originating from eight different tissues
- ASSAY_COMMENT: ATP-based luminescence cell viability assay, whole panel
- RUN_PARAMETERS: Homo sapiens; 72 h treatment; range across cancer cell lines; read-out: EC50, range over the cancer cell lines
pEC50: −log10 of the molar value.
REPORTED_PROPERTY: pEC50

{"COMPOUND": "C/C=C(/C=O)[C@@H](CC=O)CC(=O)OCCc1ccc(O)c(O)c1", "SYSTEM_NAME": "sixteen human cancer cell lines originating from eight different tissues", "pEC50": "< 4.60"}

Field pEC50 (sixteen human cancer cell lines originating from eight different tissues), entry C/C=C(/C=O)[C@@H](CC(=O)O)CC(=O)OCCc1ccc(O)cc1 : < 4.00

With sixteen human cancer cell lines originating from eight different tissues as the test system, COC(=O)C1=COC(C)[C@@H](C=O)[C@@H]1CC(=O)OCCc1ccc(O)c(O)c1 (mixture of isomers) showed pEC50 of 4.30 to 4.92

// pEC50 (sixteen human cancer cell lines originating from eight different tissues) for C/C=C(/C=O)[C@@H](CC=O)CC(=O)OCCc1ccc(O)cc1 = 4.35 to 5.04

###

- Tested on: MCF-7
- ASSAY_COMMENT: ATP-based luminescence cell viability assay (ViaLight), 72 h
- Parameters: species or system human
- RUN_PARAMETERS: 72 h treatment, read-out: EC50 Values of Olive Oil Polyphenols
REPORTED_PROPERTY: EC50 (µM)
State the answer as a number, implicitly in µM.

Let me check: C/C=C(/C=O)[C@@H](CC=O)CC(=O)OCCc1ccc(O)cc1 [compound 1, oleocanthal] , system MCF-7, measured EC50 is 24.6

###

- Test system: Huh-7
- ASSAY_COMMENT: ATP-based luminescence cell viability assay (ViaLight), 72 h
- Set-up: species or system human
- RUN_PARAMETERS: Homo sapiens, Huh-7, 72 h, 72 h treatment, read-out: EC50 Values of Olive Oil Polyphenols
REPORTED_PROPERTY: EC50 (µM)

(I) C/C=C(/C=O)[C@@H](CC=O)CC(=O)OCCc1ccc(O)c(O)c1
(II) C/C=C(/C=O)[C@@H](CC=O)CC(=O)OCCc1ccc(O)cc1
(III) COC(=O)C1=COC(C)[C@@H](C=O)[C@@H]1CC(=O)OCCc1ccc(O)c(O)c1 (mixture of isomers)
**Query** # ascending order, key=EC50 Provide your answer as the labels ordered per the instruction.
**Result** III, II, I

###

- System: NHDF
- ASSAY_COMMENT: ATP-based luminescence cell viability assay (ViaLight), 72 h
- RUN_PARAMETERS: NHDF (normal human dermal fibroblasts); 72 h treatment; read-out: EC50 Values of Olive Oil Polyphenols
REPORTED_PROPERTY: EC50 (µM)
Number only, in µM; omit the unit.

Consider the following illustrative entries.
{"MOLECULE": "C/C=C(/C=O)[C@@H](CC=O)CC(=O)OCCc1ccc(O)cc1", "EC50 / µM": 24.7}
{"MOLECULE": "C/C=C(/C=O)[C@@H](CC=O)CC(=O)OCCc1ccc(O)c(O)c1", "EC50 / µM": 49}

Item: COC(=O)C1=COC(C)[C@@H](C=O)[C@@H]1CC(=O)OCCc1ccc(O)c(O)c1 (mixture of isomers) | EC50: 42.7
